Exercise: for every item that follows, state its recorded IC50.
# number only, unit nM dropped from output

IC50 on 5-hydroxytryptamine receptor 1A (Rattus norvegicus) for `CCN1CCc2cccc(O)c2CC1` is 630

IC50 on 5-hydroxytryptamine receptor 1A (Rattus norvegicus) for `CCCN1CCc2cccc(OC)c2CC1` is 63

IC50 on 5-hydroxytryptamine receptor 1A (Rattus norvegicus) for `CCCN1CCc2c(Br)ccc(OC)c2CC1` is 28

IC50 on 5-hydroxytryptamine receptor 1A (Rattus norvegicus) for `CCCCN1CCc2cccc(O)c2CC1` is 420

IC50 on 5-hydroxytryptamine receptor 1A (Rattus norvegicus) for `COc1cccc2c1CCN(C)CC2` is 480

IC50 on 5-hydroxytryptamine receptor 1A (Rattus norvegicus) for `COc1cccc2c1CCN(CC1CC1)CC2` is 120

IC50 on 5-hydroxytryptamine receptor 1A (Rattus norvegicus) for `CCN1CCc2cccc(OC)c2CC1` is 210

IC50 on 5-hydroxytryptamine receptor 1A (Rattus norvegicus) for `CCCN1CCc2cccc(O)c2CC1` is 81

---

Tested on: Rattus norvegicus
assay-explanation: Effect evaluated in vivo on 5-HTP accumulation in limbic system at a dose 50 umol/kg (s.c.)
Assay type: functional
Hi! Could you tag entries with Control below 60% as criterion met, and those at or above as criterion not met? Much appreciated.

Enquiry: In the record for `COc1cccc2c1CCN(C)CC2` , is Control less than 60%?
Return: criterion not met

Enquiry: In the record for `CCCN1CCc2c(Br)ccc(OC)c2CC1` , is Control less than 60%?
Return: criterion met

Enquiry: In the record for `CCN1CCc2cccc(O)c2CC1` , is Control less than 60%?
Return: criterion met

Enquiry: In the record for `CCCCN1CCc2ccc(O)cc2CC1` , is Control less than 60%?
Return: criterion not met

Enquiry: In the record for `CN1CCc2cccc(O)c2CC1` , is Control less than 60%?
Return: criterion met

Enquiry: In the record for `CCN1CCc2cccc(OC)c2CC1` , is Control less than 60%?
Return: criterion not met

---

Test system: Rattus norvegicus
assay-explanation: Effect evaluated in vivo on 5-HTP accumulation in corpus striatum at a dose 50 umol/kg (s.c.)
Assay type: functional
measurement-kind: Control
Include the unit after the number when you answer.

Sample `CN1CCc2cccc(O)c2CC1` ; Control observed: 54%

Sample `CCCN1CCc2c(Br)ccc(OC)c2CC1` ; Control observed: 50%

Sample `CCCCN1CCc2ccc(O)cc2CC1` ; Control observed: 106%

Sample `COc1cccc2c1CCN(C)CC2` ; Control observed: 72%

Sample `CCN1CCc2cccc(OC)c2CC1` ; Control observed: 66%

Sample `CCCN1CCc2cccc(OC)c2CC1` ; Control observed: 63%

Sample `CCN1CCc2cccc(O)c2CC1` ; Control observed: 54%

---

Exercise: for every item that follows, state its recorded ED50.
System: Rattus norvegicus
assay-explanation: Effect evaluated in vivo on 5-HTP accumulation in limbic system after subcutaneous administration
Format: functional
applied-conditions: sc
# number only, unit µmol/kg dropped from output

Sample `CN1CCc2cccc(O)c2CC1` ; ED50 observed: 10

Sample `CCN1CCc2cccc(O)c2CC1` ; ED50 observed: 5

Sample `CCCN1CCc2cccc(O)c2CC1` ; ED50 observed: 1.3

Sample `CCCN1CCc2cccc(OC)c2CC1` ; ED50 observed: 1.5

Sample `CCCN1CCc2c(Br)ccc(OC)c2CC1` ; ED50 observed: 2.7

Sample `COc1cccc2c1CCN(CC1CC1)CC2` ; ED50 observed: 1.7
